Where these numbers come from: ChEMBL document CHEMBL1221223

# Test system: Lytechinus pictus
# test.protocol: Antagonistic activity at NAADP receptor in sea urchin egg homogenate assessed as inhibition of NAADP-mediated Ca2+ release using Fluo-3 staining based fluorimetric assay relative to control
# Assay type: functional, tissue-based
Activity calls are given as the source filed them. No cut-off for these calls is given here.
Output constraint: value belongs to true for active, false for inactive

Below are worked cases with known answers.
>  <structure.as.smiles>
NC(=O)c1c(NC(=O)CN2CCN(S(=O)(=O)c3ccc4c(c3)OCCO4)CC2)sc2c1CCCC2

>  <target.or.system>
Lytechinus pictus

>  <label.value>
false

$$$$
>  <structure.as.smiles>
Cc1ccc(-n2c(SCC(=O)N/N=C\c3cccc(Oc4ccccc4)c3)nnc2-c2ccc(Cl)cc2)cc1

>  <target.or.system>
Lytechinus pictus

>  <label.value>
false

$$$$
>  <structure.as.smiles>
COc1cc2c(cc1OC)-c1cc(NCCN3CCN(C(=O)c4ccc(F)cc4)CC3)nc(=O)n1CC2

>  <target.or.system>
Lytechinus pictus

>  <label.value>
false

$$$$

// query For CS(=O)(=O)N(Cc1ccccc1)c1ccc(C(=O)N/N=C/c2cccc(Oc3ccccc3)c2)cc1 , which call appears in the assay record?
// result false

// query What call does the record list for Cc1ccc(-c2cc(C(=O)NCC(C)(C)CNC(=O)c3cc(-c4ccc(C)o4)nc4ccccc34)c3ccccc3n2)o1 ?
// result false

// query # fetch the recorded call for CC(C)N(CCCNC(=O)c1ccc2c(c1)N(Cc1c(F)cccc1Cl)C(=O)CS2)Cc1ccccc1 here
// result true

---

# Test system: Lytechinus pictus
# test.protocol: Antagonistic activity at NAADP receptor in sea urchin egg homogenate assessed as inhibition of NAADP-mediated Ca2+ release using Fluo-3 staining based fluorimetric assay relative to control
# Assay type: functional, tissue-based
Activity calls are given as the source filed them. No cut-off for these calls is given here.
Field 'call' accepts active, inactive

Some solved entries appear below for comparison.
>  <structure.as.smiles>
C[C@@H]1CCc2c(sc(NC(=O)CN3CCN(S(=O)(=O)c4ccc5c(c4)OCCO5)CC3)c2C#N)C1

>  <label.value>
inactive

$$$$
>  <structure.as.smiles>
CCN(CC)CCOC(=O)c1ccc(NC(=O)c2cc(-c3cccc4ccccc34)nc3ccccc23)cc1

>  <label.value>
inactive

$$$$
>  <structure.as.smiles>
COc1ccc2[nH]c(C(=O)O)c(CCNC(=O)CO/N=C3/C=C[C@@]4(C)C(=C3)CC[C@@H]3[C@H]4CC[C@]4(C)[C@H]3CC[C@]4(C)O)c2c1

>  <label.value>
active

$$$$

// query State the result this test recorded for COc1ccc(S(=O)(=O)N2CCN([C@H](C)C(=O)Nc3ccccc3-c3ccccc3)CC2)cc1 .
// result inactive

// query Look up the recorded call for FC(F)(F)c1cccc(N2CCN(Cn3nc(COc4ccccc4)n(-c4ccccc4)c3=S)CC2)c1 in this test.
// result active

// query Hi team, can someone confirm the assay call for COc1ccc(C(=O)OCC(=O)c2ccc3c(c2)-c2ccccc2C3)cc1S(=O)(=O)N1CCCc2ccccc21 ?
// result active

// query Which outcome did this test record for the molecule O=C(COC(=O)c1cccc(Oc2ccccc2)c1)COC(=O)c1cccc(Oc2ccccc2)c1 ?
// result inactive

---

# System: Lytechinus pictus
# test.protocol: Antagonistic activity at NAADP receptor in sea urchin egg homogenate assessed as inhibition of NAADP-mediated Ca2+ release using Fluo-3 staining based fluorimetric assay relative to control
# Type: functional, tissue-based
Calls of active or inactive are those of the source. The calls are words filed in the database; no cut-off is given here.
Tick one outcome: active, inactive

Solved cases below.
>  <structure.as.smiles>
COc1ccccc1N(C)S(=O)(=O)c1ccc(C(=O)Nc2ccc(N(c3ccccc3)C(C)C)cc2)cc1

>  <target.or.system>
Lytechinus pictus

>  <label.value>
active

$$$$
>  <structure.as.smiles>
CCN1C(=O)c2ccccc2[C@H]1Nc1ccc(C(=O)N2CCN(C/C=C/c3ccccc3)CC2)cc1

>  <target.or.system>
Lytechinus pictus

>  <label.value>
inactive

$$$$
>  <structure.as.smiles>
CCn1c2ccccc2c2cc(NC(=O)CN3CCN(S(=O)(=O)c4cc(Cl)ccc4Cl)CC3)ccc21

>  <target.or.system>
Lytechinus pictus

>  <label.value>
inactive

$$$$
>  <structure.as.smiles>
CN1C(=O)/C(=C/c2ccccc2F)Sc2ccc(C(=O)N3CCN(Cc4ccc5c(c4)OCO5)CC3)cc21

>  <target.or.system>
Lytechinus pictus

>  <label.value>
inactive

$$$$
>  <structure.as.smiles>
O=C(COc1ccccc1-c1ccccc1)N1CCN(S(=O)(=O)c2ccc3c(c2)OCCO3)CC1

>  <target.or.system>
Lytechinus pictus

>  <label.value>
inactive

$$$$

// query State the result this test recorded for CC(C)(c1ccccc1)c1ccc(OC[C@@H](O)CN[C@H](Cc2ccccc2)c2nc(-c3ccccc3)no2)cc1 .
// result inactive

// query Please share the test call associated with CN1C(=O)/C(=C/c2ccccc2Cl)Sc2ccc(C(=O)N3CCN(Cc4ccc5c(c4)OCO5)CC3)cc21 .
// result inactive

// query Hello, I am checking results. What call was entered for CCn1c2ccccc2c2cc(NC(=O)CN3CCN(S(=O)(=O)c4ccc(OC)cc4)CC3)ccc21 ?
// result inactive
